Experiment: Compound 2 concentrations in plasma by LC-MS/MS
Format: in vivo, SCID mice
Settings: female, SCID, mouse, plasma, oral, 1 mg/kg, Plasma Compound 2 Concentration (μM) Mean ± SEM, 1 mg/kg single oral dose, 24 h
quantity.name: concentration at 24 h (µM)

[
  {
    "smiles.representation": "CCN1C(=O)CNc2ncc(-c3ccc(-c4nc[nH]n4)nc3C)nc21",
    "quantity.name": "concentration at 24 h",
    "data.value": 0.005
  }
]

* * *

Assay: Compound 2 concentrations in plasma by LC-MS/MS
Type: in vivo, SCID mice
Conditions: female, SCID, mouse, plasma, oral, 2 mg/kg, 2 mg/kg QD, 6 h after last dose; read-out: Plasma Concentration (μM) Mean ± SEM
quantity.name: concentration at 6 h (µM)

[
  {
    "smiles.representation": "CCN1C(=O)CNc2ncc(-c3ccc(-c4nc[nH]n4)nc3C)nc21",
    "quantity.name": "concentration at 6 h",
    "data.value": 0.27
  }
]
